# SYSTEM_TESTED: UniProt:P38532
# Sequence (P38532 whole entry): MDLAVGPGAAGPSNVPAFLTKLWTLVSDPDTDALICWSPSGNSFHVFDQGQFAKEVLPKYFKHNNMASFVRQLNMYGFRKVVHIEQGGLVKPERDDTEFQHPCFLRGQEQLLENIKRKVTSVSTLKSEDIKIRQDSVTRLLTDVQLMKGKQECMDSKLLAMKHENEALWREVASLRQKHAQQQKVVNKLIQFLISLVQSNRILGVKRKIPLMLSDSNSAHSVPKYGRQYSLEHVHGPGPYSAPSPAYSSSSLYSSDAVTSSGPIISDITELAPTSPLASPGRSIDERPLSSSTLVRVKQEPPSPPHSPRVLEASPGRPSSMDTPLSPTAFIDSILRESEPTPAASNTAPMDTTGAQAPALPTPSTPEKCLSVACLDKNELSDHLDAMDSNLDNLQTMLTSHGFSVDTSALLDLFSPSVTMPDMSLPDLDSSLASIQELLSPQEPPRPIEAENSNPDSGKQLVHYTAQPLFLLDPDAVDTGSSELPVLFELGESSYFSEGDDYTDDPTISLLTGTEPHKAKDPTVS
# EXPERIMENTAL_PROTOCOL: enhancement of HSF1-driven luciferase signal – cell-based, NIH3T3, luminescence, dose retest, confirmation (AID 435004);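 further: stress induced by proteasome inhibitor MG132 added 30 min after compound; luciferase reporter driven by HSF1 response element in NIH3T3 cells; actives raise luminescence as potentiators of the MG132 stress response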
# Format: functional
Active and inactive are the calls of the source. No stated cut-off is given here; in the data, actives have a measured EC50 and inactives only a lower limit.
Returns: one label drawn from Y for active, N for inactive

Some entries whose results are on file:
CCOc1ccc(CNc2ccc(N3CCN(Cc4ccccc4)CC3)cc2)cc1 | N
Cc1cccn2c(=O)c3c(nc12)N1CCC(Cc2ccccc2)CC1C1(C3)C(=O)N(C)C(=O)N(C)C1=O (stereo unspecified) | N

Recorded call for Cc1occc1C(=O)NNS(=O)(=O)c1ccc([N+](=O)[O-])cc1 ? N

Recorded call for CNc1nc(Nc2ccc(C)c(Cl)c2)nc(N)c1[N+](=O)[O-] ? Y

Recorded call for CCOC(=O)Cn1nnc(-c2cccc(OC)c2)n1 ? N

Recorded call for S=C(NCc1ccco1)N/N=C/c1ccc(Cl)cc1 ? N

Recorded call for COc1cc(/C=C2\SC(=S)N(Nc3ncc(C(F)(F)F)cc3Cl)C2=O)ccc1O ? Y

Recorded call for COc1ccc(-c2cc(C(F)(F)F)nc(S(C)(=O)=O)n2)cc1OC ? Y

Recorded call for O=C(NCCn1cccn1)C1CCC(=O)N(CCc2cccc(F)c2)C1 (stereo unspecified) ? N

Recorded call for CCn1c(SCC(=O)c2ccc(Cl)cc2)nnc1-c1ccoc1C ? N

Recorded call for Cc1ccc(S(=O)(=O)n2c(=O)oc3ccccc32)cc1 ? N
